Entries and their measured melting point follow.
PROPERTY NAME: melting point

compound=COc1ccc2c(c1Cl)CCCC2=O property_name="melting point" result="130 to 131 °C"
compound=O=C(CCNc1c(C(=O)O)[nH]c2cc(Cl)ccc12)c1ccc(F)c(F)c1 property_name="melting point" result="260 to 264 °C"
compound="COc1ccc(C(O)(c2ccc3c(c2)C(c2cccc(Cl)c2)Nc2nnnn2-3)c2cncn2C)cc1 (centres undefined)" property_name="melting point" result="220 °C"
compound=CNC(=O)c1ccc2ccccc2c1 property_name="melting point" result="108 to 109 °C"
compound="OCC1OC(n2cnc3c(NN4CCCC4)nc(I)nc32)C(O)C1O (centres undefined)" property_name="melting point" result="216 to 217 °C"
compound=CCCCC[C@H]1CC[C@H](CSc2cc(O)c3c(c2N)C(=O)c2ccccc2C3=O)CC1 property_name="melting point" result="129 to 130 °C"
compound=C=CCn1c(NCC(F)(F)F)nc(N2CCc3ccccc3CC2)c(C#N)c1=O property_name="melting point" result="186 to 191 °C"
compound=COCCNc1cccc(C(N)=O)c1 property_name="melting point" result="89 to 91 °C"
compound=CC(=O)c1cc2c(Br)cccc2n1S(=O)(=O)c1ccccc1 property_name="melting point" result="142 to 146 °C"
compound=Cc1ccc(S(=O)(=O)n2ccc3c(CBr)cccc32)cc1 property_name="melting point" result="113 to 134 °C"
compound="CCC(=O)OC(C)c1ccc(-c2ccc(O)cc2)cc1 (single isomer, unassigned; (+))" property_name="melting point" result="133 to 135 °C"
compound=Cn1cc(CNC(=O)c2cc(N3CCN(Cc4ccc(F)cc4)C3=O)n[nH]2)cn1 property_name="melting point" result="244 to 245 °C"
compound=COC(=O)c1cc2ccnc(NCc3ccccc3)c2[nH]1 property_name="melting point" result="154 to 155 °C"
compound=COc1cc(OCC(=O)N(C)C)c(/C=C/C(=O)c2ccc(C(=O)O)cc2)cc1-c1cccs1 property_name="melting point" result="197 to 198 °C"
compound=Cc1ccc(OCc2ccccc2)c(C(=O)O)c1 property_name="melting point" result="98 to 100 °C"
compound=Cc1c(SCCCSCc2ccc(Cl)s2)ccnc1CSc1ccncc1 property_name="melting point" result="76 to 77 °C"
compound=CSc1cc2c(cc1C(F)(F)F)N(C(=O)Nc1ccc(C(=O)O)cc1)CC2 property_name="melting point" result="> 200 °C"
compound=O=C1NCCc2c(-c3cccc(-c4ccccc4)c3)[nH]c3cccc1c23 property_name="melting point" result="160 to 163 °C"
compound=O=Cc1ccc(CBr)c(Cl)c1 property_name="melting point" result="64 to 66 °C"
compound=CCCOc1ccc(S(=O)(=O)N2CCN(CCO)CC2)cc1-c1nc2c(CCC)nn(C)c2c(=O)[nH]1 property_name="melting point" result="158 to 159 °C"
compound=CC(=O)N1CC[C@H](Oc2ccc(C=Cc3cc4cc(C#N)ccc4o3)cc2O)C1 property_name="melting point" result="191 to 193 °C"
compound=Cc1cc(S(=O)(=O)c2ccc(N)cc2)cc(N(C)C)n1 property_name="melting point" result="157 to 159 °C"
compound=COc1ccc(CNc2c([N+](=O)[O-])cc(Br)c3ccccc23)c(OC)c1 property_name="melting point" result="104 to 105 °C"
compound=Cn1c2c(c3cc(C#N)ccc31)C(=O)CCC2 property_name="melting point" result="190 to 192 °C"
compound=O=c1[nH]c(=O)n(CCCCBr)c2ncccc12 property_name="melting point" result="139 to 141 °C"
compound="CN1CCCC(C(=O)OC2c3ccccc3C(=O)N2c2ccc3ccc(Cl)nc3n2)C1 (centres undefined)" property_name="melting point" result="211 °C"
compound="COc1cc(N)c(Cl)cc1C(=O)NCC1CCCN1C1CCCCC1 (centres undefined)" property_name="melting point" result="123 to 124 °C"
compound=c1cc(-c2nccs2)nc(C2OCCO2)c1 property_name="melting point" result="71 °C"
compound=N#CCCOc1ccc(Oc2ccccc2)cc1 property_name="melting point" result="81 to 83 °C"
compound="Nc1ccn(C2C=CC(CO)O2)c(=O)n1 (centres undefined)" property_name="melting point" result="167 to 169 °C"
compound=CCCCC(CC)(C(=O)O)C(=O)O property_name="melting point" result="161 to 170 °C"
compound="CC(=O)OC1CSC(Oc2cccnc2-c2nnn[nH]2)C(OC(C)=O)C1OC(C)=O (centres undefined)" property_name="melting point" result="119 to 127 °C"
compound="CNC1C=Cc2cc(O)ccc2CC1 (centres undefined)" property_name="melting point" result="152 °C"
compound=Cc1c(F)c(F)cc2c(=O)c(C(=O)O)cn(-c3nc(N)c(F)cc3F)c12 property_name="melting point" result="274 to 277 °C"
compound=O=[N+]([O-])c1ccc(-c2oncc2CO)cc1 property_name="melting point" result="170 to 171 °C"
compound=CC(=O)NC[C@H]1CN(c2ccc3c(c2)N(C(=O)OCc2ccccc2)[C@H](C)C3)C(=O)O1 property_name="melting point" result="201 to 203 °C"
compound="O=C1OC(c2ccccc2)C2CCc3cc(O)ccc3N12 (centres undefined)" property_name="melting point" result="216 °C"
compound="CCOC1(C)OCC(O)O1 (centres undefined)" property_name="melting point" result="86 to 87 °C"
compound="CN1CCCC2C(=NO)CCCC21 (centres undefined)" property_name="melting point" result="169 to 171 °C"
